assay: Drug level in Wistar rat brain measured per gram of tissue at 20 mg/kg, iv after 1.5 hrs; assay type: ADME, organism-based; set-up: dose 20 mg/kg, route intravenous; details: read-out: Drug uptake
endpoint: concentration at 1.5 h (ng/g)
Could you give me the number in ng/g? Just the number is fine.

[in] Find the recorded concentration at 1.5 h belonging to CCCNC(=O)[C@H](Cc1c[nH]cn1)NC(=O)CCN.O=C(O)C(F)(F)F and report it.
[out] 600

###

experiment: Antioxidant activity assessed as 4-hydroxy-trans-2,3-nonenal scavenging activity at 1 mM after 6 hrs by HPLC relative to control; format: functional
Label scheme for Activity: lower than 40% is N, 40% and above is Y.

Worked set:
>  <compound>
NCCC(=O)N[C@@H](Cc1c[nH]cn1)C(N)=O.O=C(O)C(F)(F)F

>  <class>
N

$$$$
>  <compound>
CCCCCCNC(=O)[C@H](Cc1c[nH]cn1)NC(=O)CCN.O=C(O)C(F)(F)F

>  <class>
N

$$$$
>  <compound>
CCCNC(=O)[C@H](Cc1c[nH]cn1)NC(=O)CCN.O=C(O)C(F)(F)F

>  <class>
Y

$$$$
>  <compound>
CCCCOc1ccc(CNC(=O)[C@H](Cc2c[nH]cn2)NC(=O)CCN)cc1.O=C(O)C(F)(F)F

>  <class>
N

$$$$
>  <compound>
CCOC[C@H](Cc1c[nH]cn1)NC(=O)CCN.O=C(O)C(F)(F)F

>  <class>
Y

$$$$
>  <compound>
NCCC(=O)N[C@@H](Cc1c[nH]cn1)C(=O)NCc1ccccc1.O=C(O)C(F)(F)F

>  <class>
N

$$$$
>  <compound>
CCCCCCCCNC(=O)[C@H](Cc1c[nH]cn1)NC(=O)CCN.O=C(O)C(F)(F)F

>  <class>
Y

$$$$
>  <compound>
CNC(=O)[C@H](Cc1c[nH]cn1)NC(=O)CCN.O=C(O)C(F)(F)F

>  <class>
N

$$$$
>  <compound>
NCCC(=O)N[C@@H](Cc1c[nH]cn1)C(=O)O [CARNOSINE]

>  <class>
Y

$$$$
>  <compound>
NCCC(=O)N[C@@H](Cc1c[nH]cn1)C(=O)NCC1CCCCC1.O=C(O)C(F)(F)F

>  <class>
N

$$$$

[in] Determine whether this compound has Activity no lower than 40%: CCCCNC(=O)[C@H](Cc1c[nH]cn1)NC(=O)CCN.O=C(O)C(F)(F)F
[out] N

[in] Please indicate if the recorded Activity for CCNC(=O)[C@H](Cc1c[nH]cn1)NC(=O)CCN.O=C(O)C(F)(F)F meets or exceeds 40%.
[out] N
